ASSAY_SUMMARY: Compound 1 PK dosed Days 1-5 with topotecan
Assay type: in vivo, human
ASSAY_CONTEXT: human, plasma, intravenous, Cohort 2 (Topotecan 1.25 mg/m^2); Compound 1 200 mg/m^2; Day 1; mean; read-out: AUCinf averaged
MEASUREMENT_LABEL: AUC(0-inf) (ng·h/mL)
Write down the numeric answer in ng·h/mL and omit the unit.

CN1CCN(c2ccc(Nc3ncc4cc5n(c4n3)C3(CCCCC3)CNC5=O)nc2)CC1 has a reported AUC(0-inf) of 2490

----------
ASSAY_SUMMARY: Compound 1 PK dosed Days 1-5 with topotecan
Format: in vivo, human
ASSAY_CONTEXT: human, plasma, intravenous, 200 mg/m^2 with Topotecan […]^2 (Cohort 1), Day 4, individual subjects; read-out: t½ (converted)
MEASUREMENT_LABEL: half-life (h)
Write down the numeric answer in h and omit the unit.

CN1CCN(c2ccc(Nc3ncc4cc5n(c4n3)C3(CCCCC3)CNC5=O)nc2)CC1 has a reported half-life of 6.96

----------
ASSAY_SUMMARY: Compound 1 PK dosed Days 1-3 with etoposide and carboplatin
Format: in vivo, human
ASSAY_CONTEXT: human, plasma, intravenous, 200 mg/m2, 200 mg/m^2 with Etoposide and Carboplatin, Day 1, Geo. Mean; read-out: t½ (converted)
MEASUREMENT_LABEL: half-life (h)
Write down the numeric answer in h and omit the unit.

CN1CCN(c2ccc(Nc3ncc4cc5n(c4n3)C3(CCCCC3)CNC5=O)nc2)CC1 has a reported half-life of 8.07

----------
ASSAY_SUMMARY: 14-day oral gavage toxicokinetic study in rats
Format: in vivo
ASSAY_CONTEXT: male, rat, plasma, po, 2 mg/kg, Compound 1 Plasma Concentration, rats, Male, Day 1, 4 h; daily oral 2 mg/kg (Group 7); individual animals
MEASUREMENT_LABEL: concentration at 4 h
I'd appreciate it if you included the unit after the number.

CN1CCN(c2ccc(Nc3ncc4cc5n(c4n3)C3(CCCCC3)CNC5=O)nc2)CC1 has a reported concentration at 4 h of 122 ng/mL

----------
ASSAY_SUMMARY: 14-day oral gavage toxicokinetic study in rats
Type: in vivo
ASSAY_CONTEXT: both sexes, rat, plasma, po, 15 mg/kg, oral 15 mg/kg, Study Day 14, Overall
MEASUREMENT_LABEL: Cmax (ng/mL)
Write down the numeric answer in ng/mL and omit the unit.

CN1CCN(c2ccc(Nc3ncc4cc5n(c4n3)C3(CCCCC3)CNC5=O)nc2)CC1 has a reported Cmax of 1410

----------
ASSAY_SUMMARY: 14-day oral gavage toxicokinetic study in rats
Format: in vivo
ASSAY_CONTEXT: male, rat, plasma, po, 30 mg/kg, oral 30 mg/kg, Study Day 14, Male
MEASUREMENT_LABEL: AUC(0-t)
I'd appreciate it if you included the unit after the number.

CN1CCN(c2ccc(Nc3ncc4cc5n(c4n3)C3(CCCCC3)CNC5=O)nc2)CC1 has a reported AUC(0-t) of 29300 ng·h/mL

----------
ASSAY_SUMMARY: 14-day oral gavage toxicokinetic study in rats
Assay type: in vivo
ASSAY_CONTEXT: male, rat, plasma, po, 30 mg/kg, Mean Compound 1 Plasma Concentration, rats, oral 30 mg/kg, Day 1, 2 h, Male
Procedure: Plasma was obtained from blood samples collected from rats in a composite sampling scheme, with 3 samples collected per sex, per dose, at each target collection time, as illustrated in Table 21 to Table 25. […] The following parameters were determined: […] A value of 0 ng/mL was assigned to all values below the lower limit of quantitation (BLQ, <10.0 ng/mL). […] CL: Clearance (L/h/kg), calculated as the dose divided by AUC(0-t). […] Cmax/Dose: Normalized Cmax, calculated as Cmax divided by total dose. […]
MEASUREMENT_LABEL: concentration at 2 h (ng/mL)
Write down the numeric answer in ng/mL and omit the unit.

CN1CCN(c2ccc(Nc3ncc4cc5n(c4n3)C3(CCCCC3)CNC5=O)nc2)CC1 [Compound 1] has a reported concentration at 2 h of 1620

----------
ASSAY_SUMMARY: Single escalating dose IV infusion pharmacokinetics in healthy volunteers (noncompartmental)
Assay type: in vivo, human
ASSAY_CONTEXT: both sexes, human, plasma, iv, 6 mg/m^2, Compound 1 Concentration, Cohort 1, 6 mg/m^2 IV; Time 1.00 h; r7-9=Subjects 1-3,r11=Mean,r13=Min,r14=Median,r15=Max,r17=Geometric Mean
Protocol: Forty-five subjects have enrolled in the study. Analysis of plasma concentration versus time data for calculation of standard pharmacokinetic (PK) parameters following intravenous infusion administration was conducted using Phoenix WinNonlin version 6.3 using a nominal infusion duration and scheduled blood sampling times. Random subject numbers were assigned by the bioanalytical laboratory to retain the blind. […]
MEASUREMENT_LABEL: concentration at 1 h (ng/mL)
Write down the numeric answer in ng/mL and omit the unit.

CN1CCN(c2ccc(Nc3ncc4cc5n(c4n3)C3(CCCCC3)CNC5=O)nc2)CC1 [Compound 1] has a reported concentration at 1 h of 11.8

----------
ASSAY_SUMMARY: 14-day oral gavage toxicokinetic study in rats
Assay type: in vivo
ASSAY_CONTEXT: female, rat, plasma, po, 2 mg/kg, oral 2 mg/kg, Study Day 1, Female
MEASUREMENT_LABEL: AUC(0-t)
I'd appreciate it if you included the unit after the number.

CN1CCN(c2ccc(Nc3ncc4cc5n(c4n3)C3(CCCCC3)CNC5=O)nc2)CC1 has a reported AUC(0-t) of 2060 ng·h/mL

----------
ASSAY_SUMMARY: 14-day oral gavage toxicokinetic study in rats
Format: in vivo
ASSAY_CONTEXT: female, rat, plasma, po, 15 mg/kg, Mean Compound 1 Plasma Concentration, rats, oral 15 mg/kg, Day 14, 8 h, Female
MEASUREMENT_LABEL: concentration at 8 h (ng/mL)
Write down the numeric answer in ng/mL and omit the unit.

CN1CCN(c2ccc(Nc3ncc4cc5n(c4n3)C3(CCCCC3)CNC5=O)nc2)CC1 [Compound 1] has a reported concentration at 8 h of 979

----------
ASSAY_SUMMARY: Compound 1 PK dosed Days 1-3 with etoposide and carboplatin
Assay type: in vivo, human
ASSAY_CONTEXT: human, plasma, intravenous, 200 mg/m2, 200 mg/m^2 with Etoposide and Carboplatin, Day 1, Mean; read-out: AUCinf
Description: Analysis of plasma concentration versus time data for calculation of standard pharmacokinetic (PK) parameters following intravenous infusion administration was conducted using Phoenix WinNonlin version 6.3 using a nominal infusion duration and scheduled blood sampling times.
MEASUREMENT_LABEL: AUC(0-inf) (µg·h/mL)
Write down the numeric answer in µg·h/mL and omit the unit.

CN1CCN(c2ccc(Nc3ncc4cc5n(c4n3)C3(CCCCC3)CNC5=O)nc2)CC1 has a reported AUC(0-inf) of 2.53

----------
ASSAY_SUMMARY: 14-day oral gavage toxicokinetic study in rats
Format: in vivo
ASSAY_CONTEXT: both, rat, plasma, po, 15 mg/kg, Mean Compound 1 Plasma Concentration, rats, oral 15 mg/kg, Day 1, […], Overall
MEASUREMENT_LABEL: concentration at […] (µg/mL)
Write down the numeric answer in µg/mL and omit the unit.

CN1CCN(c2ccc(Nc3ncc4cc5n(c4n3)C3(CCCCC3)CNC5=O)nc2)CC1 [Compound 1] has a reported concentration at […] of 0.0725

----------
ASSAY_SUMMARY: 14-day oral gavage toxicokinetic study in rats
Type: in vivo
ASSAY_CONTEXT: male, rat, plasma, po, 15 mg/kg, Mean Compound 1 Plasma Concentration, rats, oral 15 mg/kg, Day 14, 0.5 h, Male
MEASUREMENT_LABEL: concentration at 0.5 h
I'd appreciate it if you included the unit after the number.

CN1CCN(c2ccc(Nc3ncc4cc5n(c4n3)C3(CCCCC3)CNC5=O)nc2)CC1 has a reported concentration at 0.5 h of 740 ng/mL

----------
ASSAY_SUMMARY: 14-day oral gavage toxicokinetic study in rats
Format: in vivo
ASSAY_CONTEXT: female, rat, plasma, po, 5 mg/kg, Mean Compound 1 Plasma Concentration, rats, oral 5 mg/kg, Day 14, 8 h, Female
MEASUREMENT_LABEL: concentration at 8 h
I'd appreciate it if you included the unit after the number.

CN1CCN(c2ccc(Nc3ncc4cc5n(c4n3)C3(CCCCC3)CNC5=O)nc2)CC1 [Compound 1] has a reported concentration at 8 h of 255 ng/mL

----------
ASSAY_SUMMARY: 14-day oral gavage toxicokinetic study in rats
Assay type: in vivo
ASSAY_CONTEXT: male, rat, plasma, po, 2 mg/kg, Compound 1 Plasma Concentration, rats, Male, Day 14, 8 h; daily oral 2 mg/kg (Group 7); individual animals
MEASUREMENT_LABEL: concentration at 8 h (ng/mL)
Write down the numeric answer in ng/mL and omit the unit.

CN1CCN(c2ccc(Nc3ncc4cc5n(c4n3)C3(CCCCC3)CNC5=O)nc2)CC1 [Compound 1] has a reported concentration at 8 h of 68.7
